Test system: Candida albicans
Experiment: agar plate system (Table II)
Assay type: cell-based
Details: antibiotic medium 22, 72 hours at 30° C., read-out: Minimum Inhibitory Concentration
property label: MIC (µg/mL)
Report the figure in µg/mL without appending any unit label.

// MIC value for CCCC1OCC(Br)([N+](=O)[O-])CO1 (stereo not drawn) : 3.1

// MIC value for O=[N+]([O-])C1(Br)COCOC1 [Compound B, 5-bromo-5-nitro-1,3-dioxane, reference compound] : 12.5

// MIC value for CC1OCC(Br)([N+](=O)[O-])CO1 (stereo not drawn) : 6.25

// MIC value for CC(C)C1OCC(Br)([N+](=O)[O-])CO1 (stereo not drawn) : 6.25

// MIC value for CCC1OCC(Br)([N+](=O)[O-])CO1 (stereo not drawn) : 6.25

* * *

Tested on: Escherichia coli
Assay: agar plate system (Table II)
Type: cell-based
Details: antibiotic medium 1, 72 hours at 30° C., read-out: Minimum Inhibitory Concentration
property label: MIC (µg/mL)
Report the figure in µg/mL without appending any unit label.

# `O=[N+]([O-])C(Br)(CO)CO` with Escherichia coli: MIC is 6.25

# O=[N+]([O-])C1(Br)COCOC1 [Compound B, 5-bromo-5-nitro-1,3-dioxane, reference compound] with Escherichia coli: MIC is 6.25

# CCCC1OCC(Br)([N+](=O)[O-])CO1 (stereo not drawn) with Escherichia coli: MIC is 12.5

# CC1OCC(Br)([N+](=O)[O-])CO1 (stereo not drawn) with Escherichia coli: MIC is 12.5

# CCC1OCC(Br)([N+](=O)[O-])CO1 (stereo not drawn) with Escherichia coli: MIC is 12.5

# CC(C)C1OCC(Br)([N+](=O)[O-])CO1 (stereo not drawn) with Escherichia coli: MIC is 12.5

* * *

System: Escherichia coli
Assay: conventional tube dilution test (Table I)
Assay type: cell-based
Conditions: 48 h, antibiotic Number 3 medium, two days at 37° C., read-out: Minimum Inhibitory Concentration
property label: MIC (µg/mL)
Report the figure in µg/mL without appending any unit label.

// MIC value for CC(C)C1OCC(Br)([N+](=O)[O-])CO1 (stereo not drawn) [Compound F, 5-bromo-2-isopropyl-5-nitro-1,3-dioxane] : 25

// MIC value for CCC1OCC(Br)([N+](=O)[O-])CO1 (stereo not drawn) [Compound D, 5-bromo-2-ethyl-5-nitro-1,3-dioxane] : 25

// MIC value for CCCC1OCC(Br)([N+](=O)[O-])CO1 (stereo not drawn) [Compound E, 5-bromo-5-nitro-2-n-propyl-1,3-dioxane] : 25

// MIC value for O=[N+]([O-])C(Br)(CO)CO [Compound A, 2-bromo-2-nitropropane-1,3-diol] : 12.5

// MIC value for O=[N+]([O-])C1(Br)COCOC1 [Compound B, 5-bromo-5-nitro-1,3-dioxane, reference compound] : 25

// MIC value for CC1OCC(Br)([N+](=O)[O-])CO1 (stereo not drawn) [Compound C, 5-bromo-2-methyl-5-nitro-1,3-dioxane] : 25

* * *

Test system: Staphylococcus aureus
Test: conventional tube dilution test (Table I)
Assay type: cell-based
Conditions: 48 h, antibiotic Number 3 medium, two days at 37° C., read-out: Minimum Inhibitory Concentration
property label: MIC
Could you write the number and then its unit?

// MIC value for CC1OCC(Br)([N+](=O)[O-])CO1 (stereo not drawn) : 25 µg/mL

// MIC value for O=[N+]([O-])C1(Br)COCOC1 [Compound B, 5-bromo-5-nitro-1,3-dioxane, reference compound] : 25 µg/mL

// MIC value for CCC1OCC(Br)([N+](=O)[O-])CO1 (stereo not drawn) : 25 µg/mL

// MIC value for CC(C)C1OCC(Br)([N+](=O)[O-])CO1 (stereo not drawn) : 25 µg/mL

// MIC value for `O=[N+]([O-])C(Br)(CO)CO` : 25 µg/mL

// MIC value for CCCC1OCC(Br)([N+](=O)[O-])CO1 (stereo not drawn) : 50 µg/mL
